# Tested On: Aldehyde dehydrogenase 1A1 (Homo sapiens)
# Sequence (P00352 whole entry): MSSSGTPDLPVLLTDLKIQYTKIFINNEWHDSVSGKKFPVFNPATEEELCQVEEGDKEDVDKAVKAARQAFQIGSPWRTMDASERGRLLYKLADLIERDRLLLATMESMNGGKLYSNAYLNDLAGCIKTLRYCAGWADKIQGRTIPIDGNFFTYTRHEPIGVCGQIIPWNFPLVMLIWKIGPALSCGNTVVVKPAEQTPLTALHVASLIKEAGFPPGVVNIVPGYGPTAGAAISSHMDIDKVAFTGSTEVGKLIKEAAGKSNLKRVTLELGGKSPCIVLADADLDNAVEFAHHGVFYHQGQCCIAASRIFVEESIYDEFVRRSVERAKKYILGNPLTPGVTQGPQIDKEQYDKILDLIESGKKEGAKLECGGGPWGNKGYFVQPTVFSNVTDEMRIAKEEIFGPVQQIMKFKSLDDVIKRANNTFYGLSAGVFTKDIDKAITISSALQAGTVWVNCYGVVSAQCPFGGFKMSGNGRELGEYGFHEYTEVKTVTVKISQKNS
# Assay Remarks: Uncompetitive inhibition of full length recombinant human ALDH1A1 expressed in Escherichia coli BL21(DE3) using propionaldehyde as substrate in presence of varying levels NAD+ by Lineweaver-Burk plot analysis
Readout Type: Ki (nM)
Only the number, expressed in nM, is required.

Lookup: Could you tell me which Ki is on file for `Cc1oc2cc3oc(=O)c(CCC(=O)N4CCCCC4)c(C)c3cc2c1C` ?
Found: 170

###

This section presents compounds with their documented pIC50 values.
# Tested On: UniProt P47895
# Sequence (P47895 whole entry): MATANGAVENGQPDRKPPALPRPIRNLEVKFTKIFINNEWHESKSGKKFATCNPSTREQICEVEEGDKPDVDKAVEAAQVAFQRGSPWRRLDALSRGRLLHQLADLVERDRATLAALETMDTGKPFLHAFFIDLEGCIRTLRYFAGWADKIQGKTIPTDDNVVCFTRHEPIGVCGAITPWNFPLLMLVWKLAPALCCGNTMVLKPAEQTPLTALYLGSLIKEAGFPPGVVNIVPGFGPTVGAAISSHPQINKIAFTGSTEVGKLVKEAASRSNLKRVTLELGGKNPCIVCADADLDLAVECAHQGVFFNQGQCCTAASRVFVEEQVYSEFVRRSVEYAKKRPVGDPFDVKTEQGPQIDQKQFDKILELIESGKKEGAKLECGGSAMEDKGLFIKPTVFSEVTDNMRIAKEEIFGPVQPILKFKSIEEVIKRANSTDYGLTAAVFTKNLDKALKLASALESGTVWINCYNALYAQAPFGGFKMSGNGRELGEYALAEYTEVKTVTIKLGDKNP
pIC50 field: float, defined as -log10 of concentration (mol/L).

# annotated cases, reported pIC50 shown
Cc1oc2cc3oc(=O)c(CCC(=O)N4CCCCC4)c(C)c3cc2c1C ... 4.85
CCCc1c(C)c2cc3c(C)coc3cc2oc1=O ... 5.96
Cc1c(Cc2ccccc2)c(=O)oc2cc(OS(C)(=O)=O)ccc12 ... 5.00
Cc1oc2cc3oc(=O)c(C)c(C)c3cc2c1C ... 6.57

Lookup: Could you tell me which pIC50 is on file for `Cc1oc2cc3oc(=O)c4c(c3cc2c1C)CCC4` ?
Found: 6.77

Lookup: Could you tell me which pIC50 is on file for `CCCc1c(C)c2cc3c(C)c(C)oc3cc2oc1=O` ?
Found: 6.40
